Data provenance is patent US11739098B2.

test_system: UniProt Q9NR97
Sequence (Q9NR97 27-1041): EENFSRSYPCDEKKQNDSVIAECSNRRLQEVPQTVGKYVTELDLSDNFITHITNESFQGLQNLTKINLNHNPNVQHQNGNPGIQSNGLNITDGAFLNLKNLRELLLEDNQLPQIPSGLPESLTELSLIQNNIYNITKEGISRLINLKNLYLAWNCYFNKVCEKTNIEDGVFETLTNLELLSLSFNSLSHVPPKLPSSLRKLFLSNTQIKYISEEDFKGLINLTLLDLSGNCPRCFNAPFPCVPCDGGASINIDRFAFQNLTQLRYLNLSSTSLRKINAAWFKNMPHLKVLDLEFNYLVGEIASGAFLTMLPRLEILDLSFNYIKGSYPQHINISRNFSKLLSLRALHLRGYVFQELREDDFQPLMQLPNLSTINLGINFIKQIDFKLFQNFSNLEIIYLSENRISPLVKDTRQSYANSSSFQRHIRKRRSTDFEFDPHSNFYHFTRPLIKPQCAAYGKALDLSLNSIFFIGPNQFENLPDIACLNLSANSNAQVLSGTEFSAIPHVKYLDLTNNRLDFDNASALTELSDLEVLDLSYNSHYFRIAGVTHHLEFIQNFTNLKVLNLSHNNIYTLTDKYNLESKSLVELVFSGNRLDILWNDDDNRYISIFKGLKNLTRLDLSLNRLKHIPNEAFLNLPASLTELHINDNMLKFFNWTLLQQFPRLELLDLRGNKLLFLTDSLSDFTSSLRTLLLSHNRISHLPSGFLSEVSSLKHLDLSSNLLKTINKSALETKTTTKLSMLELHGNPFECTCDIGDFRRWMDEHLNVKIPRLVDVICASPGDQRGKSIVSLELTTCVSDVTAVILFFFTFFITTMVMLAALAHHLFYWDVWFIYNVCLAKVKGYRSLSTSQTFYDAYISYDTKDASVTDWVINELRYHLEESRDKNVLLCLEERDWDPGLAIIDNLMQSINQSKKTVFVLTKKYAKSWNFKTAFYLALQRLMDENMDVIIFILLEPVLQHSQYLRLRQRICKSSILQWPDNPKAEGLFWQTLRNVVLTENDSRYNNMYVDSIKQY
experiment_notes: TLR8 inhibition reporter assay (HEK-Blue cells, SEAP reporter, R848 stimulation)
condition_set: HEK-Blue cells overexpressing human TLR8, SEAP reporter, R848 15.9 μM
Attribute: IC50

Solved entries:
Request: Provide IC50 value for the following compound: Cc1cc2cc(-c3[nH]c4ccc(C5CCNCC5)cc4c3C(C)C)cc(C)n2n1 [Example 142]
Response: < 100 nM

Request: Provide IC50 value for the following compound: CC(C)c1c(-c2cnc3[nH]ncc3c2)[nH]c2ccc(C3CCN(C(=O)CN(C)C)CC3)cc12 [Example 562]
Response: < 100 nM

Request: Provide IC50 value for the following compound: CCc1c(-c2ccnc3[nH]ncc23)[nH]c2ccc(C3CCN(CC4(N)CC4)CC3)cc12 [Example 657]
Response: < 100 nM

Request: Provide IC50 value for the following compound: COc1nc(-c2[nH]c3ccc(C4CCN(CC(=O)N(C)C)CC4)cc3c2C(C)C)cn2ncnc12 [Example 292]
Response: < 100 nM

Request: Provide IC50 value for the following compound: CNC(=O)CN1CCC(c2ccc3[nH]c(-c4cc(C)n5cc(C)nc5c4)c(C(C)C)c3c2)CC1 [Example 352]
Response: 100 to 1000 nM

Request: Provide IC50 value for the following compound: Cc1c(-c2[nH]c3ccc(C4CCN(C(=O)CN(C)C)CC4)cc3c2C(C)C)nn2ncnc2c1C [Example 453]
Response: < 100 nM

Request: Provide IC50 value for the following compound: CC(C)c1c(-c2cnc3[nH]ccc3c2)[nH]c2ccc(C3CCN(C4CCN(C)CC4)CC3)cc12 [Example 802]
Response: 100 to 1000 nM

New cases:
Request: Provide IC50 value for the following compound: CC(C)c1c(-c2ccnc3[nH]ncc23)[nH]c2cc(F)c(C3CCNCC3)cc12 [Example 253]
Response: < 100 nM

----------
test_system: human TLR9 (Homo sapiens, UniProt Q9NR96)
Sequence (Q9NR96 26-1032): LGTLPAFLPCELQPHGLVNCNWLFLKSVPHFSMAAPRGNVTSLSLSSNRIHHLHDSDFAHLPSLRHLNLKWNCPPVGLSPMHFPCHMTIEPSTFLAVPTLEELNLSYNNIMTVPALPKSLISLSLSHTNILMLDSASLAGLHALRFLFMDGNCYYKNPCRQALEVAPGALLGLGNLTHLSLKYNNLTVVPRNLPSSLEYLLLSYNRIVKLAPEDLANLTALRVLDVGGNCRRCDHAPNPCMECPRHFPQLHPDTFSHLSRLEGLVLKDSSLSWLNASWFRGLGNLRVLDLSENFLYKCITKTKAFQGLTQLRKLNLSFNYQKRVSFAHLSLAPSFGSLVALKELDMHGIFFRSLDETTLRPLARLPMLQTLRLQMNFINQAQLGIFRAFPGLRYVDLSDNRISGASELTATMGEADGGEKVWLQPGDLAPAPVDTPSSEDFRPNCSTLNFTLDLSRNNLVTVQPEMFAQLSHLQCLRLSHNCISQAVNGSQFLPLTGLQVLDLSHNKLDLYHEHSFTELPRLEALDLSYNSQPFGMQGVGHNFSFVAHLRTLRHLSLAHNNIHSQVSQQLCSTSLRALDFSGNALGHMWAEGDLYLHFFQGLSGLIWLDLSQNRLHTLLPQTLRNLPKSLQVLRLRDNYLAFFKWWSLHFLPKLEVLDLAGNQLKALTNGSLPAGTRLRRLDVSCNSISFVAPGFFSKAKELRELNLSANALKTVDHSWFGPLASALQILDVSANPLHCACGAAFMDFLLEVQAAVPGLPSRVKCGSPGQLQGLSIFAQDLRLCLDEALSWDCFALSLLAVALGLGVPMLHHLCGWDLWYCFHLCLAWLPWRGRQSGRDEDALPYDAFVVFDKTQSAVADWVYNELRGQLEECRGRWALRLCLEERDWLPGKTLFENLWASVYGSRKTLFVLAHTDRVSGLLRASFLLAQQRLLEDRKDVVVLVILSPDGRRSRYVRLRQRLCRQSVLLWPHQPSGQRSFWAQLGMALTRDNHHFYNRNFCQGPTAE
experiment_notes: TLR9 inhibition reporter assay (HEK-Blue cells, SEAP reporter, ODN2006 stimulation)
condition_set: HEK-Blue cells overexpressing human TLR9, SEAP reporter, ODN2006 5 nM
pIC50: −log10 of the molar value.
quantity_kind: pIC50

Solved entries:
Request: Please respond with reported pIC50 (system human TLR9 (Homo sapiens, UniProt Q9NR96)) for `CC(C)c1c(-c2ccnc3[nH]ncc23)[nH]c2ccc(C3CCN(C(=O)CNCC(C)(C)N4CCOCC4)CC3)cc12` .
Response: 4.30 to 6.00

Request: Please respond with reported pIC50 (system human TLR9 (Homo sapiens, UniProt Q9NR96)) for `Cc1cc(-c2[nH]c3ccc(C4CCN(C5COC5)CC4)cc3c2C(C)C)cc2ccnn12` .
Response: 4.30 to 6.00

Request: Please respond with reported pIC50 (system human TLR9 (Homo sapiens, UniProt Q9NR96)) for `Cc1cc(-c2[nH]c3ccc(C4CCN(CC(=O)N(C)C)CC4)cc3c2C(C)C)cn2c(C#N)cnc12` .
Response: 4.30 to 6.00

Request: Please respond with reported pIC50 (system human TLR9 (Homo sapiens, UniProt Q9NR96)) for `CCOc1cc(-c2[nH]c3ccc(C4CCN(C(=O)CN(C)C)CC4)cc3c2C(C)C)cc2ncnn12` .
Response: 6.00 to 7.00

Request: Please respond with reported pIC50 (system human TLR9 (Homo sapiens, UniProt Q9NR96)) for `Cc1cc(-c2[nH]c3ccc(C4CCN(C(=O)CN5CCOCC5)CC4)cc3c2C(C)C)cn2nnnc12` .
Response: 4.30 to 6.00

New cases:
Request: Please respond with reported pIC50 (system human TLR9 (Homo sapiens, UniProt Q9NR96)) for `CCc1c(-c2ccc3nccn3c2)[nH]c2cc(F)c(C3CCNCC3)c(F)c12` .
Response: > 7.00

Request: Please respond with reported pIC50 (system human TLR9 (Homo sapiens, UniProt Q9NR96)) for `Cc1nc2c(C)cc(-c3[nH]c4ccc(C5CCN(CC(=O)N(C)C)CC5)cc4c3C(C)C)cn2c1C` .
Response: 6.00 to 7.00

Request: Please respond with reported pIC50 (system human TLR9 (Homo sapiens, UniProt Q9NR96)) for `Cc1c(-c2[nH]c3ccc(C4CCNCC4)cc3c2C(C)C)c2cccnc2n1C` .
Response: 4.30 to 6.00

Request: Please respond with reported pIC50 (system human TLR9 (Homo sapiens, UniProt Q9NR96)) for `CNCCN1CCC(c2ccc3[nH]c(-c4ccc5c(c4)OCCN5C)c(C)c3c2)CC1` .
Response: 4.30 to 6.00

Request: Please respond with reported pIC50 (system human TLR9 (Homo sapiens, UniProt Q9NR96)) for `CC(C)c1c(-c2cccn3ncnc23)[nH]c2ccc(C3CCNCC3)cc12` .
Response: 4.30 to 6.00

Request: Please respond with reported pIC50 (system human TLR9 (Homo sapiens, UniProt Q9NR96)) for `CNCCN1CCC(c2ccc3[nH]c(-c4cccc5cccnc45)c(C)c3c2)CC1` .
Response: 4.30 to 6.00

Request: Please respond with reported pIC50 (system human TLR9 (Homo sapiens, UniProt Q9NR96)) for `CC(C)c1c(-c2ccnc3[nH]c(=O)oc23)[nH]c2ccc(C3CCNCC3)cc12` .
Response: 4.30 to 6.00

Request: Please respond with reported pIC50 (system human TLR9 (Homo sapiens, UniProt Q9NR96)) for `COc1ccc(CN2CCC(c3ccc4[nH]c(-c5ccc6nccn6c5)c(C(C)C)c4c3)CC2)cn1` .
Response: 6.00 to 7.00

Request: Please respond with reported pIC50 (system human TLR9 (Homo sapiens, UniProt Q9NR96)) for `CNCCN1CCC(c2ccc3[nH]c(-c4ccc5nc(C)cn5c4)c(C(C)C)c3c2)CC1` .
Response: 6.00 to 7.00

Request: Please respond with reported pIC50 (system human TLR9 (Homo sapiens, UniProt Q9NR96)) for `CNC(=O)CN1CCC(c2ccc3[nH]c(-c4ccn5nc(C)cc5c4)c(C(C)C)c3c2)CC1` .
Response: 4.30 to 6.00

Request: Please respond with reported pIC50 (system human TLR9 (Homo sapiens, UniProt Q9NR96)) for `CC(C)c1c(-c2ccnc3[nH]ncc23)[nH]c2ccc(C3CCN(Cc4ccc(N5CCN(C)CC5)cc4)CC3)cc12` .
Response: 6.00 to 7.00

Request: Please respond with reported pIC50 (system human TLR9 (Homo sapiens, UniProt Q9NR96)) for `Cc1cc(-c2[nH]c3ccc(C4CCN(CCS(C)(=O)=O)CC4)cc3c2C(C)C)cn2nncc12` .
Response: 4.30 to 6.00

Request: Please respond with reported pIC50 (system human TLR9 (Homo sapiens, UniProt Q9NR96)) for `CC(C)c1c(-c2ccc3cc[nH]c3c2)[nH]c2ccc(C3CCNCC3)cc12` .
Response: 4.30 to 6.00

Request: Please respond with reported pIC50 (system human TLR9 (Homo sapiens, UniProt Q9NR96)) for `CC(C)c1c(-c2cc(F)c3nccn3c2)[nH]c2ccc(C3CCN(C(=O)CN(C)C)CC3)cc12` .
Response: 4.30 to 6.00

Request: Please respond with reported pIC50 (system human TLR9 (Homo sapiens, UniProt Q9NR96)) for `Cc1c(-c2ccnc3[nH]ncc23)[nH]c2ccc(C3CCN(C4CCN(C(C)C)CC4)CC3)cc12` .
Response: > 7.00

Request: Please respond with reported pIC50 (system human TLR9 (Homo sapiens, UniProt Q9NR96)) for `Cc1cn2c(C)cc(-c3[nH]c4ccc(C5CCN(C(=O)CN(C)C)CC5)cc4c3C(C)C)cc2n1` .
Response: 6.00 to 7.00

Request: Please respond with reported pIC50 (system human TLR9 (Homo sapiens, UniProt Q9NR96)) for `CC(C)c1c(-c2ccnc3[nH]ncc23)[nH]c2ccc(C3CCN(C(=O)C[C@H](C)N)CC3)cc12` .
Response: 4.30 to 6.00

----------
Attribute: IC50
test_system: UniProt:Q9NR96
experiment_notes: TLR9 inhibition reporter assay (HEK-Blue cells, SEAP reporter, ODN2006 stimulation)
condition_set: HEK-Blue cells overexpressing human TLR9, SEAP reporter, ODN2006 5 nM

Request: Provide IC50 value for the following compound: `CC(C)c1c(-c2cn(C)c3ncccc23)[nH]c2ccc(C3CCN(CC#N)CC3)cc12`
Response: 1000 to 50000 nM

Request: Provide IC50 value for the following compound: `CNC(=O)CN1CCC(c2ccc3[nH]c(-c4cc(C)n5cc(C)nc5c4)c(C(C)C)c3c2)CC1`
Response: 100 to 1000 nM

Request: Provide IC50 value for the following compound: `Cc1nc2c(C)cc(-c3[nH]c4ccc(C5CCN(C(=O)CN(C)C)CC5)cc4c3C(C)C)cn2c1C`
Response: 100 to 1000 nM

Request: Provide IC50 value for the following compound: `Cc1cc(-c2[nH]c3ccc(C4CCN(CC(=O)N(C)C)CC4)cc3c2C(C)C)cc2[nH]cnc12`
Response: 1000 to 50000 nM

Request: Provide IC50 value for the following compound: `Cc1cc2nnnn2cc1-c1[nH]c2ccc(C3CCN(CC(=O)N(C)C)CC3)cc2c1C(C)C`
Response: 1000 to 50000 nM

Request: Provide IC50 value for the following compound: COCC(CO)N1CCC(c2ccc3[nH]c(-c4cc(C)n5ccnc5c4)c(C(C)C)c3c2)CC1 (stereo not drawn)
Response: 100 to 1000 nM

Request: Provide IC50 value for the following compound: `CCc1c(C)c(-c2[nH]c3ccc(C4CCNCC4)cc3c2C(C)C)cn2ccnc12`
Response: 100 to 1000 nM

Request: Provide IC50 value for the following compound: `CC(C)c1c(-c2ccc(C#N)c3ncccc23)[nH]c2ccc(C3CCNCC3)cc12`
Response: 100 to 1000 nM

New cases:
Request: Provide IC50 value for the following compound: `CC(C)c1c(-c2ccc(Cl)c3[nH]ncc23)[nH]c2ccc(C3CCNCC3)cc12`
Response: 1000 to 50000 nM
